Each recorded value in this set is attributed to paper PMC4345311.

target: HIV-1 protease (PR), wild-type (HIV-1, UniProt P04585 489-587); test: filter binding

binder	binding result
PR10.1-8E-M9 (structured_RNA) RNA: GGGUUACCUAGGUGUAGAUGCUCUUAAGUGUAACUUCUCAUAACAUCCGGAGGCUUUUACUUCCGGGGUGGAUCCAUUGGUCUGAACUGCUUCGAA	no binding
PR10.1-8E-M1 (structured_RNA) RNA: GGGUUACCUAGGUGUAGAUGCUCUUAAGUGUAACUUCUCAUAACAUCCGGAGGCACGUACUUCCGGGGACCUAAGUGACGUCUGAACUGCUUCGAA	no binding
PR10.1-8E-M6 (structured_RNA) RNA: GGGUUACCUAGGUGUAGAUGCUCUUAUCACAAACUUCUCAUAACAUCCGGAGGCUUUUACUUCCGGGGACCUAAGUGACGUCUGAACUGCUUCGAA	no binding
